Value source: patent US6479435B1

System: barnyardgrass (Echinochloa crusgalli, ECHCG)
Assay: Post-emerge greenhouse herbicide test, phytotoxicity rating
Format: in vivo
Settings: 500 g al/ha, 14 days after application
Please note: ECHCG phytotoxicity rating (0-100) exactly at 30 is -1. Only values below 30 get 1.

{"molecule": "O=c1n(-c2cc(Oc3ccc([N+](=O)[O-])cc3C(F)(F)F)c(Cl)cc2F)c(=S)n2n1CCCC2 [Compound 8-14]", "class_assignment": 1}
{"molecule": "Cn1nc(-c2cc(Oc3ccc(C#N)cn3)c(Cl)cc2F)c(Cl)c1C(F)(F)F [Compound 1-4]", "class_assignment": -1}
{"molecule": "N#Cc1ccccc1Oc1cc(-n2c(=O)n3n(c2=S)CCCC3)c(F)cc1Cl [Compound 8-7]", "class_assignment": 1}
{"molecule": "O=c1n(CCCF)nnn1-c1cc(Oc2ncccc2[N+](=O)[O-])c(Cl)cc1Cl [Compound 6-3]", "class_assignment": 1}
{"molecule": "Cn1nc(-c2cc(Oc3ncccn3)c(Cl)cc2F)c(Cl)c1C(F)(F)F [Compound 1-7]", "class_assignment": -1}
{"molecule": "CS(=O)(=O)Nc1ccc(Oc2cc(-n3c(=O)cc4n(c3=O)CCC4)c(F)cc2Cl)cc1 [Compound 5-5]", "class_assignment": 1}
{"molecule": "Cn1nc(-c2cc(Oc3cccc(F)n3)c(Cl)cc2F)c(Cl)c1C(F)(F)F [Compound 1-5]", "class_assignment": -1}
{"molecule": "N#Cc1cccnc1Oc1cc(-n2nnn(CCCF)c2=O)c(Cl)cc1Cl [Compound 6-5]", "class_assignment": 1}
{"molecule": "CCOC(=O)C(C)Oc1ccc(Oc2cc(-n3c(=O)n4n(c3=S)CCCC4)c(F)cc2Cl)cc1 (centres unmarked) [Compound 8-11]", "class_assignment": -1}
{"molecule": "Cn1nc(-c2cc(Oc3ncccc3C(F)(F)F)c(Cl)cc2F)c(Cl)c1C(F)(F)F [Compound 1-2]", "class_assignment": -1}
{"molecule": "Cn1nc(-c2cc(Oc3ncccc3C#N)c(Cl)cc2F)c(Cl)c1C(F)(F)F [Compound 1-3]", "class_assignment": -1}
{"molecule": "O=c1n(CCCF)nnn1-c1cc(Oc2ncccn2)c(Cl)cc1Cl [Compound 6-14]", "class_assignment": -1}
{"molecule": "COc1nc(OC)nc(Oc2cc(-c3nn(C)c(C(F)(F)F)c3Cl)c(F)cc2Cl)n1 [Compound 1-8]", "class_assignment": 1}
{"molecule": "Cc1nsc(Oc2cc(-n3nnn(CCCF)c3=O)c(F)cc2Cl)c1[N+](=O)[O-] [Compound 6-17]", "class_assignment": 1}
{"molecule": "O=c1sc(=Nc2cc(Oc3ncccc3C(F)(F)F)c(Cl)cc2F)n2n1CCCC2 [Compound 7-1]", "class_assignment": 1}
